# TARGET UNDER TEST: NADPH oxidase 5 (Homo sapiens)
# EXPERIMENT NOTES: NOX5-dependent H2O2 signal modulators, primary screen, NOX inhibitor project, cell-based, HEK293-NOX5, Amplex Red fluorescence (AID 1161)
# TEST CONDITIONS: HEK293-NOX5, ionomycin, 45 min, higher = more signal
MEASUREMENT LABEL: z-score
Give bare numbers.

C=CCC(OC(C)=O)[C@@H]1[C@@H](N(Cc2cc3ccccc3o2)C(=O)c2ccc(-c3ccccc3)cc2)c2cc(OCCCO)ccc2N1C(=O)c1ccc2ccccc2c1 (some centres undefined) : 0.869
O=C(NCC(F)(F)F)[C@@H]1c2ccccc2C(=O)N(Cc2cc(F)cc(C(F)(F)F)c2)[C@H]1c1ccc(CO)cc1 : -1.17
O[C@@H](Cc1ccccc1)[C@@H](/C=C/C1CC1)N(CC#Cc1ccccc1)Cc1cccc(Cl)c1 : -0.406
CO[C@]12C=C(Br)[C@@H](C[C@@H]1c1cccc(C)c1)[C@@]1(CO1)C2=O : -0.588
COc1cc(CO)cc(I)c1O[C@H]1C=C(C(=O)NCCO)C[C@@H](NCc2ccc(F)cc2)[C@@H]1O : -0.994
Cc1ccc(S[C@]2(C(=O)O)CC(=O)N(C3Cc4ccccc4C3)[C@@H]2c2ccc(CO)cc2)cc1 : 1.58
COc1ccc([Si](C)(C)[C@H]2[C@H](CC(=O)N(CCO)Cc3ccccc3)O[C@@]3(C(=O)N(Cc4cccc(N5CCOC5=O)c4)c4ccccc43)[C@@H]2C)cc1 : 2.48
COCCOC(=O)N1C(=O)[C@@]2(c3cc(C#Cc4ccc(OC)cc4)ccc31)[C@H](c1ccc(O)cc1)N1[C@H](c3ccccc3)[C@H](c3ccccc3)OC(=O)[C@H]1[C@@H]2C(=O)N1CCCCCCC1 : 0.391

Batch: z-score for all items listed.
1. CC(C)(C)OC(=O)CC[C@@]1(C(=O)NCc2ccccc2)N=C(c2ccc(OCCCO)cc2)O[C@@H]1c1ccccc1N=[N+]=[N-]
2. C[C@H]1NC(=O)[C@@]23C(=O)N[C@@H](Cc4ccccc4)C2[C@H](C)[C@@]2(C)O[C@H]2C3/C=C/C/C=C\CNC(=O)[C@H](Cc2ccccc2)NC1=O (some centres undefined)
3. CC1CC/C=C\[C@H]2OC34C=CCN(C(C)C)C(=O)[C@H]3N(CCCCCCO)C(=O)[C@@H]4C2C(=O)O1 (some centres undefined)
4. O=C1C=C(c2ccccc2)C(=O)c2ccc([C@H]3Oc4ccccc4S(=O)(=O)N4CCC[C@@H]34)cc21
5. Cc1ccccc1C(O)C1C=CC2C(=O)N(C)C(=O)C2N1N(c1ccccc1)c1ccccc1 (centres undefined)

## Output
1. -1.86
2. 0.201
3. 2.1
4. -6.41
5. -0.125

## Input Suppose we examine the compound `COc1ccccc1CN1C(=O)c2ccccc2[C@@]2(Cc3ccccc3N(CC(F)(F)F)C2=O)[C@@H]1c1ccc(CO)cc1` ; what z-score value has been reported?
## Output -0.154
